Target: T1, hMC4-R (human, UniProt P32245 1-332)
T1 construct: whole, on cells; Assayed as membranes of CHO-K1 cells expressing the receptor; also called hMC-R receptor subtype 4; melanocortin-4 (MC4-R)
T1 sequence (P32245 whole entry): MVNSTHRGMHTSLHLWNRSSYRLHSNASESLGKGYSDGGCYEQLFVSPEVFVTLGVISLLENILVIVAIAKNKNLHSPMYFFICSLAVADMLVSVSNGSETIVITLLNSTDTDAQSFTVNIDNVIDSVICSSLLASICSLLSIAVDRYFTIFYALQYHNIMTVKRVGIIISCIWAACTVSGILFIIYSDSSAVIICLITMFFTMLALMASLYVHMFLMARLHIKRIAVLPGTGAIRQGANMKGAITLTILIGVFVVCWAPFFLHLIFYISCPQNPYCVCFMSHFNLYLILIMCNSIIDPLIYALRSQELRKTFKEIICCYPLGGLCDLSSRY
Test: competition with [125I]-NDP-α-MSH, CHO-K1 membranes
Bridge positions count the residues as written; N and C are the ends. Square brackets hold non-standard residues; d marks the D form. Ends that are not written are not given here. Nle = CCCC[C@H](N)C(=O)O; GABA = NCCCC(=O)O; βAla = NCCC(=O)O
Readout name: pKi
Keep in mind that pKi stands for -log10 of concentration in molar terms.

Record excerpt, results attached:
| Binder | Observed value |
| --- | --- |
| [Nle]CH[dF]RW[GABA]C-NH2 (disulfide 2-8) [Nle-c(Cys-His-D-Phe-Arg-Trp-Gaba-Cys)-NH2] | 9.33 |
| Ac-[Nle]CHFR[dW][GABA]C-NH2 (disulfide 2-8, Phe 4 is the L form here) [Ac-Nle-c(Cys-His-Phe-Arg-D-Trp-Gaba-Cys)-NH2] | 6.86 |

Please turn your attention to the following entry.
Query: Looking for the measured pKi of Ac-[Nle]DH[dF]RW[βAla]K-NH2 (lactam 2-8; SMILES CCCC[C@H](NC(C)=O)C(=O)N[C@H]1CC(=O)NCCCC[C@@H](C(N)=O)NC(=O)CCNC(=O)[C@H](Cc2c[nH]c3ccccc23)NC(=O)[C@H](CCCNC(=N)N)NC(=O)[C@@H](Cc2ccccc2)NC(=O)[C@H](Cc2c[nH]cn2)NC1=O) [Ac-Nle-c(Asp-His-D-Phe-Arg-Trp-β-Ala-Lys)-NH2] , can you help?
Reply: 9.21
